Below, each of the compounds is paired with its reported IC50 value.
- Measured Target: c-Met (Homo sapiens, UniProt P08581)
- Construct: Kinases are expressed as either kinase domains or full length constructs; made in house
- Sequence (P08581 25-1390): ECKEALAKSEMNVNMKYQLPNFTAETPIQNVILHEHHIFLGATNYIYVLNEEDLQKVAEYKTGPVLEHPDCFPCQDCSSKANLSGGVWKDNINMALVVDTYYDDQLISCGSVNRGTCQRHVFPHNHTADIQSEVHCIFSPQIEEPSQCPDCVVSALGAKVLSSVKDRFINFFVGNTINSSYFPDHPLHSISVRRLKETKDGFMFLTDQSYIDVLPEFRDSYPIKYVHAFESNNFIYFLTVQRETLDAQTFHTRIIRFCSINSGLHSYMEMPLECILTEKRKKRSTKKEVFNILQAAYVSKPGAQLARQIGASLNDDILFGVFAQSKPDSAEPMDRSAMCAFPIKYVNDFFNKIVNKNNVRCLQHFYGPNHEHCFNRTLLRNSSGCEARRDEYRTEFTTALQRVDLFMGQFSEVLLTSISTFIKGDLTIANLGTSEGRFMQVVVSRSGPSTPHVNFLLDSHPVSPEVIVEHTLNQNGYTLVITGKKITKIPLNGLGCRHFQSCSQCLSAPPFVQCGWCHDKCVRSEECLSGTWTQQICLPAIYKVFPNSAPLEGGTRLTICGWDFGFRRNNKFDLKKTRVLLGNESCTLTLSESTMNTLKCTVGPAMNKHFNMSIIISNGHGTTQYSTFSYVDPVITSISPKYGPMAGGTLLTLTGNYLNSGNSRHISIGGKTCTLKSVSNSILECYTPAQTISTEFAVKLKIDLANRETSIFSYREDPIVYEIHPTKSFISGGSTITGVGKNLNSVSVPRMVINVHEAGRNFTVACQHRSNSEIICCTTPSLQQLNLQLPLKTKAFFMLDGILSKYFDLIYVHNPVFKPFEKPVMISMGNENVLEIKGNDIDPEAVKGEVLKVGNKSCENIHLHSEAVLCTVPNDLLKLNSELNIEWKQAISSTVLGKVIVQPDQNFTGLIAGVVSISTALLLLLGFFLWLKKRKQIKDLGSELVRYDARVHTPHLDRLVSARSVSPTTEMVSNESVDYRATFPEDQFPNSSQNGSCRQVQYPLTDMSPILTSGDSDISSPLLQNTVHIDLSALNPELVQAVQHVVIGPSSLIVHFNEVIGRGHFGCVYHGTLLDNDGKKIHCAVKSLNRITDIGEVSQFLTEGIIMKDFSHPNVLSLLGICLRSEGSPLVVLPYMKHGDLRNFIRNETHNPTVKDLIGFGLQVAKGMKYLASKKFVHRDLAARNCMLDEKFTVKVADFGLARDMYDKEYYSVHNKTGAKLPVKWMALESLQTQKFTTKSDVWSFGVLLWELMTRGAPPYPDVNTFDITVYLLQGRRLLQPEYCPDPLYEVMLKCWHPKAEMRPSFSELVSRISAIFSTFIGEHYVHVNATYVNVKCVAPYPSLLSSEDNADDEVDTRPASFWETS
- Assay Remarks: Kinase inhibition assay (33P transfer), c-Met
- Type: biochemical
- Stated Conditions: Table 2, kinase inhibition class; read-out: Met-1

Smiles Notation: FC(F)C(F)(F)Oc1cccc(Nc2ncnc(-c3cccs3)n2)c1
Measured Target: c-Met (Homo sapiens, UniProt P08581)
IC50: > 12.2 µM

What value of IC50 has been reported for the following compound? CC[C@H]1CN(c2ccc(-c3ncnc(Nc4cc(OC)c(OC)c(OC)c4)n3)cn2)CCN1 > 9.97 µM

Would you mind doing COc1cc(Nc2ncnc(Nc3cc(-c4ccc(Cl)c(Cl)c4)n[nH]3)n2)cc(OC)c1OC as well? 7.17 to 9.21 µM

Would you mind doing C#Cc1cccc(Nc2ncnc(-n3c(=O)[nH]c4ccccc43)n2)c1 as well? 7.31 to 10.7 µM

Would you mind doing COc1cc(Nc2ncnc(Nc3cc(OC)c(OC)c(OC)c3)n2)ccc1OCCN1CCOCC1 as well? > 8.78 µM

Would you mind doing CN(c1cccc(Cl)c1)c1ncnc(Nc2ccc3cn[nH]c3c2)n1 as well? > 12.8 µM
